Target: 20566-CC (NanA-DSM20566) (Streptococcus pneumoniae, UniProt P62576, G441A/I442V/K440R)
Experiment: biochemical
value-kind: pIC50
pIC50 is a log-scale quantity: -log10 of the concentration expressed in molar.

Given CC(=O)N[C@H]1[C@H]([C@H](O)[C@H](O)CO)OC(C(=O)O)=C[C@@H]1O , state its recorded pIC50. 6.04

* * *

Biological target: 20566-LC (NanA-DSM20566) (Streptococcus pneumoniae)
Construct: lectin (CBM40) + catalytic domains, residues 116-833, N-terminal 6xHis (pET-28a), ~84 kDa, E. coli BL21(DE3), cobalt column
Sequence (P62576 116-833): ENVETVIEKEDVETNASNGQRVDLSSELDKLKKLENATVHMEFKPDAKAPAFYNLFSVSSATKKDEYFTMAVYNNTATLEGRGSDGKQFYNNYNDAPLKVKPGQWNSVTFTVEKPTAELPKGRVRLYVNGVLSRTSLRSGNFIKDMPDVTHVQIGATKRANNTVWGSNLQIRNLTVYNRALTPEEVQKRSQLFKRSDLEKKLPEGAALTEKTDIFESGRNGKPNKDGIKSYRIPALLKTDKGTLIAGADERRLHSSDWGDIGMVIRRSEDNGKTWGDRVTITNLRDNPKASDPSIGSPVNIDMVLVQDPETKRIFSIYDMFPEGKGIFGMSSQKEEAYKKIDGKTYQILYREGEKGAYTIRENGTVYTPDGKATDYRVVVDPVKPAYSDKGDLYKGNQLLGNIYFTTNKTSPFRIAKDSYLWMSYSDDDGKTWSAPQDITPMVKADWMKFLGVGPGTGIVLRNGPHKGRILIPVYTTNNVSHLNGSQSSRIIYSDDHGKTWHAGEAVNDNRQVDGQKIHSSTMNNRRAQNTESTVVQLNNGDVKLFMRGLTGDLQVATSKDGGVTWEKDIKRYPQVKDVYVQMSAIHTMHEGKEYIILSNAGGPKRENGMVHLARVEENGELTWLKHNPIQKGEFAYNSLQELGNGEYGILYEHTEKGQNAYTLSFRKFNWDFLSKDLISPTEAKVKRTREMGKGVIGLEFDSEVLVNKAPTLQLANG
Assay: chemiluminescence NA-Star assay
Assay type: biochemical
Settings: read-out: 50% inhibitory concentration (μM) ^a / DANA
value-kind: IC50 (µM)
Numbers only here, please. The scale is µM.

Any idea what IC50 was measured for CC(=O)N[C@H]1[C@H]([C@H](O)[C@H](O)CO)OC(C(=O)O)=C[C@@H]1O ? 3.8

* * *

Molecular target: 20566-CC (NanA-DSM20566) (Streptococcus pneumoniae, UniProt P62576)
Construct: catalytic domain only, residues 311-833 (523 aa), N-terminal 6xHis (pET-28a), ~62 kDa, E. coli BL21(DE3); catalytic domain printed as identical to CF8919
Assay: chemiluminescence NA-Star assay
Type: biochemical
Details: read-out: 50% inhibitory concentration (μM) ^a / DANA
value-kind: IC50
Your reply should be a number followed by the unit it is expressed in.

Which value of IC50 has been reported for CC(=O)N[C@H]1[C@H]([C@H](O)[C@H](O)CO)OC(C(=O)O)=C[C@@H]1O in the records? 2.35 µM
